target: recombinant human SULT2B1b protein (Homo sapiens, UniProt O00204)
Sequence (O00204 whole entry): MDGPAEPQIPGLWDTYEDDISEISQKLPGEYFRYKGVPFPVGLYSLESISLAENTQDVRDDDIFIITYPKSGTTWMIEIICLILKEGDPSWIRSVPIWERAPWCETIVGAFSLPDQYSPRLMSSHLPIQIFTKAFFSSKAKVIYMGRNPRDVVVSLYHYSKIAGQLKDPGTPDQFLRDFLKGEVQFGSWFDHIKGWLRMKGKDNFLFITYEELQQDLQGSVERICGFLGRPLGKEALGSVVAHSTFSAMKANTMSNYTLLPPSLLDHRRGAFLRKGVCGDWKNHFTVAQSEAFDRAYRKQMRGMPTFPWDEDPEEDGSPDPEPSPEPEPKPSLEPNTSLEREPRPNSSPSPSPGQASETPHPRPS
procedure details: SULT assay (in vitro SULT2B1b enzymatic activity measurement)
condition description: recombinant human SULT2B1b; read-out: IC50 value (enzyme assay)
Could you please report measured pIC50 for the items listed next?
By convention, pIC50 is the negative base-10 log of a molar concentration.

Query: I have this compound here, CC(=O)OC1CCC2(C)C(=CCC3C2CCC2(C)C(C(C)CCC(=O)O)CCC32)C1 (centres unmarked) , and I need its recorded pIC50.
Reply: 3.73

Query: I have this compound here, C[C@H](CCC(=O)O)[C@H]1CC[C@H]2[C@@H]3CC=C4C[C@@H](O)CC[C@]4(C)[C@H]3CC[C@]12C , and I need its recorded pIC50.
Reply: 4.61
